Recorded Ratio IC50 values for a group of molecules are listed next.
Organism: Homo sapiens
test details: Selectivity index, ratio of IC50 for recombinant human MAO-A to IC50 for recombinant human MAO-B

{"smiles string": "O=C1/C(=C/c2cccc(Br)c2)Cc2cc(O)ccc21", "endpoint result": 10}
{"smiles string": "COc1ccc2c(c1)C/C(=C\\c1ccccc1)C2=O", "endpoint result": "> 10900"}
{"smiles string": "O=C1/C(=C/c2ccc(F)cc2)Cc2cc(O)ccc21", "endpoint result": 14}
{"smiles string": "COc1ccc2c(c1)C/C(=C\\c1ccc(N(C)C)cc1)C2=O", "endpoint result": 192}
{"smiles string": "CN(C)c1ccc(/C=C2\\Cc3cc(O)ccc3C2=O)cc1", "endpoint result": 2.2}

Note: attention shifts to another entry.
Query :: Quick check: Ratio IC50 of CN(C)c1ccc(/C=C2\Cc3ccccc3C2=O)cc1 ?
Result :: 49

====

assay system: Amine oxidase [flavin-containing] A (Homo sapiens)
Sequence (P21397 whole entry): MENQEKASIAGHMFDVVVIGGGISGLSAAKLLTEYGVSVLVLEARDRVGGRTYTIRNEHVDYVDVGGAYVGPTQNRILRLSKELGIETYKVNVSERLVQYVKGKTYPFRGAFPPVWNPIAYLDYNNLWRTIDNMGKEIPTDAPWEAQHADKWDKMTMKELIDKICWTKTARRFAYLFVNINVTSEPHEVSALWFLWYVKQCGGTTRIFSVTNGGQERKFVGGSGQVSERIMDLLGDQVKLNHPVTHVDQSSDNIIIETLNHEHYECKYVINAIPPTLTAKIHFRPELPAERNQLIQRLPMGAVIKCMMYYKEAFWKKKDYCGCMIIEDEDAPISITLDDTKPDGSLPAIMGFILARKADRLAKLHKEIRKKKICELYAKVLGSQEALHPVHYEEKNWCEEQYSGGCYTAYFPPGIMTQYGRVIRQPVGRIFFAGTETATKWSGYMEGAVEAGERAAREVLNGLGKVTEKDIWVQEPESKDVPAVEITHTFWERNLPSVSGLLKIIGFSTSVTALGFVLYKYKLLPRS
test details: Inhibition of recombinant human MAO-A using kynuramine as substrate after 20 mins by fluorescence spectrophotometric analysis
pIC50: −log10 of the molar value.
Think of 6 as a floor: if pIC50 stands on it or above, it is Criterion met; beneath it, Criterion not met.

Use these answered entries as a reference point.
{"smiles string": "Cc1ccc(/C=C2\\Cc3cc(O)ccc3C2=O)cc1", "label class": "Criterion not met"}
{"smiles string": "O=C1/C(=C/c2ccccc2)Cc2ccc(O)cc21", "label class": "Criterion met"}

Let's switch to this compound now.
Query :: Answer whether pIC50 of O=C1/C(=C/c2cccc(Br)c2)Cc2cc(O)ccc21 is greater than or equal to 6.
Result :: Criterion met

====

assay system: UniProtKB P27338
Sequence (P27338 whole entry): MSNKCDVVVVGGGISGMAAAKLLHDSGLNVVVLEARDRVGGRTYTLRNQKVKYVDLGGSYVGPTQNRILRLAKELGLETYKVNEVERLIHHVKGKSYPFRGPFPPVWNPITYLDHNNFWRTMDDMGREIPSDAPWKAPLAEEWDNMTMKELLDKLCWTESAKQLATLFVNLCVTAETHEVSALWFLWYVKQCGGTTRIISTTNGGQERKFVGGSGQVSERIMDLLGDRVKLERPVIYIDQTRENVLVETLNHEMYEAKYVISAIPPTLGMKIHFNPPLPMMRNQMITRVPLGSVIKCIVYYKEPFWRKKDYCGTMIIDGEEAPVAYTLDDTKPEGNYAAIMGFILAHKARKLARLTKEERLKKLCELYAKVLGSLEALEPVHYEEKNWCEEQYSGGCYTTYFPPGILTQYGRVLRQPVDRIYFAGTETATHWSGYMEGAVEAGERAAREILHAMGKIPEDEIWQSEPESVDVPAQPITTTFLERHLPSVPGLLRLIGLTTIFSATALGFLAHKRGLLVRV
test details: Inhibition of recombinant human MAO-B using kynuramine as substrate after 20 mins by fluorescence spectrophotometric analysis
Recorded log10 of IC50 values for a group of compounds are listed next.
Hi team, quick reminder: these entries are log10 of IC50 (nM).

Solved entries:
{"smiles string": "O=C1/C(=C/c2ccccc2)Cc2cc(O)ccc21", "assay system": "UniProtKB P27338", "measured property": "log10 of IC50", "endpoint result": 2.58}
{"smiles string": "CN(C)c1ccc(/C=C2\\Cc3ccccc3C2=O)cc1", "assay system": "UniProtKB P27338", "measured property": "log10 of IC50", "endpoint result": 1.49}
{"smiles string": "O=C1/C(=C/c2ccc(Cl)c(Cl)c2)Cc2cc(O)ccc21", "assay system": "UniProtKB P27338", "measured property": "log10 of IC50", "endpoint result": 1.15}
{"smiles string": "O=C1/C(=C/c2cccc(F)c2)Cc2cc(O)ccc21", "assay system": "UniProtKB P27338", "measured property": "log10 of IC50", "endpoint result": 1.92}
{"smiles string": "CC(C)c1ccc(/C=C2\\Cc3cc(O)ccc3C2=O)cc1", "assay system": "UniProtKB P27338", "measured property": "log10 of IC50", "endpoint result": 2.33}
{"smiles string": "CN(C)c1ccc(/C=C2\\Cc3cc(O)ccc3C2=O)cc1", "assay system": "UniProtKB P27338", "measured property": "log10 of IC50", "endpoint result": 2.89}
{"smiles string": "Cc1ccc(/C=C2\\Cc3cc(O)ccc3C2=O)cc1", "assay system": "UniProtKB P27338", "measured property": "log10 of IC50", "endpoint result": 0.72}
{"smiles string": "COc1ccc2c(c1)C/C(=C\\c1ccc(N(C)C)cc1)C2=O", "assay system": "UniProtKB P27338", "measured property": "log10 of IC50", "endpoint result": 1.78}

Query :: Quick check: log10 of IC50 of COc1cccc(/C=C2\Cc3cc(O)ccc3C2=O)c1 ?
Result :: 2.67

Query :: Also, O=C1/C(=C/c2ccc(F)cc2)Cc2cc(O)ccc21 please.
Result :: 1.67

Query :: Also, O=C1/C(=C/c2ccccc2)Cc2ccc(O)cc21 please.
Result :: 3.38

Query :: Also, COc1ccc2c(c1)C/C(=C\c1ccccc1)C2=O please.
Result :: 0.96

Query :: Also, N#Cc1ccc(/C=C2\Cc3cc(O)ccc3C2=O)cc1 please.
Result :: 2.50

Query :: Also, Cc1cccc(/C=C2\Cc3cc(O)ccc3C2=O)c1 please.
Result :: 1.72

Query :: Also, N#Cc1cccc(/C=C2\Cc3cc(O)ccc3C2=O)c1 please.
Result :: 2.11

Query :: Also, O=C1/C(=C/c2ccccc2)Cc2ccccc21 please.
Result :: 3.41

====

assay system: UniProtKB P21396
Sequence (P21396 whole entry): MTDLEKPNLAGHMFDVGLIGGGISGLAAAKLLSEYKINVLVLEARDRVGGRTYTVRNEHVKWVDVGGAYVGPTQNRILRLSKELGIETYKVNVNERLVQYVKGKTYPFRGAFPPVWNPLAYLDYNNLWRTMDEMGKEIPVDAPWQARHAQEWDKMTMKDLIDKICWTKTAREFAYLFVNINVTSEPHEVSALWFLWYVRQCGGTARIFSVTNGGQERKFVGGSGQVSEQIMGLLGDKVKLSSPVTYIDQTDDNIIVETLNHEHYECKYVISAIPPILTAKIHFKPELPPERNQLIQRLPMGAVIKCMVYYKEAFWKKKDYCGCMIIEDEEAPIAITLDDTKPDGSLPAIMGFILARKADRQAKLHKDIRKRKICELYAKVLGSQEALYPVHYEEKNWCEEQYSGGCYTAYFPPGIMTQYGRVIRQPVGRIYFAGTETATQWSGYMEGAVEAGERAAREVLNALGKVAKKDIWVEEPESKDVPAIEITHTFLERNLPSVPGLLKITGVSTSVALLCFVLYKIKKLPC
measured property: pIC50
Entry type: numeric. Quantity: pIC50, the -log10 of concentration in molar units.

Query :: Quick check: pIC50 of O=C(/C=C/c1ccc(O)cc1)c1ccc(O)cc1O ?
Result :: 4.76

====

Species: Homo sapiens
test details: Selectivity index, ratio of IC50 for recombinant human MAO-A to IC50 for recombinant human MAO-B
Recorded Ratio IC50 values for a group of compounds are listed next.
The answer should be a number; do not append a unit.

Solved entries:
{"smiles string": "COc1cccc(/C=C2\\Cc3cc(O)ccc3C2=O)c1", "Ratio IC50": 2.5}
{"smiles string": "Cc1cccc(/C=C2\\Cc3cc(O)ccc3C2=O)c1", "Ratio IC50": 17}
{"smiles string": "O=C1/C(=C/c2ccccc2)Cc2ccc(O)cc21", "Ratio IC50": 0.2}
{"smiles string": "O=C1/C(=C/c2ccccc2)Cc2cc(O)ccc21", "Ratio IC50": 5.2}
{"smiles string": "N#Cc1cccc(/C=C2\\Cc3cc(O)ccc3C2=O)c1", "Ratio IC50": 3.4}

Query :: Quick check: Ratio IC50 of O=C1/C(=C/c2ccc(Br)cc2)Cc2cc(O)ccc21 ?
Result :: 198

Query :: Also, O=C1/C(=C/c2ccc(Cl)c(Cl)c2)Cc2cc(O)ccc21 please.
Result :: 17

Query :: Also, O=C1/C(=C/c2ccc(O)cc2)Cc2cc(O)ccc21 please.
Result :: 0.6

Query :: Also, O=C1/C(=C/c2ccccc2)Cc2ccccc21 please.
Result :: 2.1

Query :: Also, O=C1/C(=C/c2ccc(Cl)cc2)Cc2cc(O)ccc21 please.
Result :: 57
